Source: the supplement of paper PMC11246515

testName: total protein half-life in vivo (active degradation + dilution); higher = more stable protein
assaySetup: wild type E. coli NCM3722; growth: N-lim chemostat; doubling time 6 h
measurementName: total protein half-life in vivo (h)

{"sequenceData": "MSDISKASLPKAIFLMGPTASGKTALAIELRKILPVELISVDSALIYKGMDIGTAKPNAEELLAAPHRLLDIRDPSQAYSAADFRRDALAEMADITAAGRIPLLVGGTMLYFKALLEGLSPLPSADPEVRARIEQQAAEQGWESLHRQLQEVDPVAAARIHPNDPQRLSRALEVFFISGKTLTELTQTSGDALPYQVHQFAIAPASRELLHQRIEQRFHQMLASGFEAEVRALFARGDLHTDLPSIRCVGYRQMWSYLEGEISYDEMVYRGVCATRQLAKRQITWLRGWEGVHWLDSEKPEQARDEVLQVVGAIAG", "recordedResult": 4.32}
{"sequenceData": "MQKQAELYRGKAKTVYSTENPDLLVLEFRNDTSAGDGARIEQFDRKGMVNNKFNYFIMSKLAEAGIPTQMERLLSDTECLVKKLDMVPVECVVRNRAAGSLVKRLGIEEGIELNPPLFDLFLKNDAMHDPMVNESYCETFGWVSKENLARMKELTYKANDVLKKLFDDAGLILVDFKLEFGLYKGEVVLGDEFSPDGSRLWDKETLEKMDKDRFRQSLGGLIEAYEAVARRLGVQLD [P0A7D7]", "recordedResult": 4.61}
{"sequenceData": "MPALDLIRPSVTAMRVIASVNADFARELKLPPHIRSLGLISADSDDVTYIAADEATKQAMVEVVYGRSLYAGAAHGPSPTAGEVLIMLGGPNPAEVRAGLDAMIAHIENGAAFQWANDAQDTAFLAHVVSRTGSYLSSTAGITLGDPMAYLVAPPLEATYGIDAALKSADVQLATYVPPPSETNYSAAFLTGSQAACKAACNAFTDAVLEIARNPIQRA", "recordedResult": 4.87}
{"sequenceData": "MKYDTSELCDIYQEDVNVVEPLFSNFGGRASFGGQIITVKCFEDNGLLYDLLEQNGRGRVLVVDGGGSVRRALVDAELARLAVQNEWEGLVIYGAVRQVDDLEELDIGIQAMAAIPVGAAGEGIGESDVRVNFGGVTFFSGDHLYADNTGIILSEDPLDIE [P0A8R0]", "recordedResult": 5.06}
{"sequenceData": "MQLNITGNNVEITEALREFVTAKFAKLEQYFDRINQVYVVLKVEKVTHTSDATLHVNGGEIHASAEGQDMYAAIDGLIDKLARQLTKHKDKLKQH [P0AFX0]", "recordedResult": 3.39}
{"sequenceData": "MVKSQPILRYILRGIPAIAVAVLLSACSANNTAKNMHPETRAVGSETSSLQASQDEFENLVRNVDVKSRIMDQYADWKGVRYRLGGSTKKGIDCSGFVQRTFREQFGLELPRSTYEQQEMGKSVSRSNLRTGDLVLFRAGSTGRHVGIYIGNNQFVHASTSSGVIISSMNEPYWKKRYNEARRVLSRS [P0AFV4]", "recordedResult": 2.19}
{"sequenceData": "MAFQVKIHQIRAFVEVARQGSIRGASRMLNMSQPALSKSIQELEEGLAAQLFFRRSKGVTLTDAGESFYQHASLILEELRAAQEDIRQRQGQLAGQINIGMGASISRSLMPAVISRFHQQHPQVKVRIMEGQLVSMINELRQGELDFTINTYYQGPYDHEFTFEKLLEKQFAIFCRPGHPAIGARSIKQLLDYSWTMPTPHGSYYKQLSELLDDQAQTPQVGVVCETFSACISLVAKSDFLSKLPEEMGCDPLHGQGLVMLPVSEILPKAAYYLIQRRDSRQTPLTASLITQFRRECGYLQS", "recordedResult": 0.867}
